# Tgt: acetylcholine receptor
# Test description: SPR, AchR immobilised, peptide 10 uM

| Binder | Binding affinity (RU) |
| --- | --- |
| RRASPR [6mer-1-1111] | 38 |
| RRCHVK [6mer-1-1095] | 27 |
| RKDHAR [6mer-1-1129] | 39 |
| RRCTGK [6mer-1-646] | 33 |
